Task for the reader: assign each of the following compounds its reported TGI.
System: HT29 colon
Assay: NCI tumour cell line growth inhibition, 48 h

compound	TGI
CCN(CC)c1nc(NC2CCCCC2)c2nc(N(CC)CC)nc(NC3CCCCC3)c2n1	> 100 µM

For every listed record, write down its TGI.
1. Cc1noc(C)c1-c1cnc2c(-c3ccc(C(=O)O)cc3)cn([C@@H](C)c3ccccn3)c2c1
2. O=C(/C=C\n1cnc(-c2cc(C(F)(F)F)cc(C(F)(F)F)c2)n1)N1CC(F)(F)C1

["> 100 µM", "11.5 µM"]

---

Tested on: SR leukemia
Assay: NCI tumour cell line growth inhibition, 48 h; in the data active = GI50 below about 0.43 µM; inactive = the rest
Valid outcomes are listed here; reply with one: y (active), n (inactive)

>>> print(df.to_string())
                                   molecule  classassignment
0  Cn1cc(C2=C(c3ccccc3C(F)(F)F)C(=O)NC2=O)c2ccccc21                n

Answer briefly: the call reported for CCCCN1C(=O)/C(=c2\sc3n(c2=O)C2C(NN=3)N(CC)C(=O)N2CC)c2ccccc21 (centres undefined) in this assay.
y

Here is the next molecule: COc1ccc(-c2nsc3c2NC(=O)CC3c2cccc(Cl)c2)cc1 (centres undefined)
n

Likewise for `COc1ccc2[nH]c(C(=O)OCc3ccc4cccc(O)c4n3)cc2c1` ?
y
